TARGET_ENTITY: PI3K alpha (Homo sapiens (Human), UniProt P42336)
Sequence (P42336 other isoform, or with tags, fused parts or gaps): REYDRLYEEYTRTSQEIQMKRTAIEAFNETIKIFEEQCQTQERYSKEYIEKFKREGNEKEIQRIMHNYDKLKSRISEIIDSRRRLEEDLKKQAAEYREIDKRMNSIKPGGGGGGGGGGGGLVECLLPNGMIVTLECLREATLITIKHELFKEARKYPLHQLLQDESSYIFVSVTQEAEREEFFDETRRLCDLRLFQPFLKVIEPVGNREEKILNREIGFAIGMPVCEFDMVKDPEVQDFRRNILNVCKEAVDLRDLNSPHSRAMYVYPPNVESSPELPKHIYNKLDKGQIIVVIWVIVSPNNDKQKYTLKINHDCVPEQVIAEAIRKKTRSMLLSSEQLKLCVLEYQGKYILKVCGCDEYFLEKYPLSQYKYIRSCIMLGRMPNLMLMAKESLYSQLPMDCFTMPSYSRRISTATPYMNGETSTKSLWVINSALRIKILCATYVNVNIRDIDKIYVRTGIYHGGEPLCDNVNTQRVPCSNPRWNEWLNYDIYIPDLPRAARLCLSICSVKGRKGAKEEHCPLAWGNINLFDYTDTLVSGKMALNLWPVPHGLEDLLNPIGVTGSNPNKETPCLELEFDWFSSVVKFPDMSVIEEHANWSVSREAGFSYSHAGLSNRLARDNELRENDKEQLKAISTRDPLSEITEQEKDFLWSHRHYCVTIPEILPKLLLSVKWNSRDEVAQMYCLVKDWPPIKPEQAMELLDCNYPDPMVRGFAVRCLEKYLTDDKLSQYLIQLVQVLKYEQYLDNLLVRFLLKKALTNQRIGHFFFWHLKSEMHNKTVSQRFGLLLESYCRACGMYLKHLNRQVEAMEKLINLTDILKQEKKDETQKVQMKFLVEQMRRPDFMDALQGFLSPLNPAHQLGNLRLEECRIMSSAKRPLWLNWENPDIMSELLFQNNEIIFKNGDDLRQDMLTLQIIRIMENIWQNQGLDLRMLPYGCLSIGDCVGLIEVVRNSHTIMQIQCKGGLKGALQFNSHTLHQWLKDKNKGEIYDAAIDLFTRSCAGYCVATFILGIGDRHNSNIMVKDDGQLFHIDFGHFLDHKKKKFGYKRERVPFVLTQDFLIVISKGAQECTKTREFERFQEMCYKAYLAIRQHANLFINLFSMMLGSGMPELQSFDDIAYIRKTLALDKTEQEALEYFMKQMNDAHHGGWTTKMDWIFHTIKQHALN
EXPERIMENT_DESCRIPTION: Enzymatic PI3K alpha isoform inhibition (lipid kinase activity, Kinase-Glo luminescence)
SETUP_CONDITIONS: Enzymatic assay
pIC50: −log10 of the molar value.
RESULT_TYPE: pIC50

Value of measured pIC50 for the entry COc1ncc(N2CCOc3ccc(O[C@H]4CCN(C(=O)c5ccc(=O)n(C)c5)C4)cc32)cc1C [Example B95] : 6.36

A. COc1ncc(N2CCOc3ccc(O[C@H]4CCN(C(=O)CCO)C4)cc32)cc1Cl [Example B107]
B. COc1cc(N2CCOc3ccc(O[C@H]4CCN(C(=O)[C@H]5CC[C@H](O)CC5)C4)cc32)cnc1OC [Example B66]
# input Among A and B , which shows a numerically higher pIC50 result? API: response body contains the label of the selected item.
# output A
(A: 6.62, B: 6.35)

The measurements presented in this section are drawn from patent US9539260B2.
